# METHOD DESCRIPTION: Mouse plasma stability
# Type: in vitro ADME
# APPLIED CONDITIONS: value ± SE, read-out: Ms Plasma Stability t1/2 (SE)
OBSERVATION TYPE: half-life (h)

[P] C=CC(=O)N[C@H]1COC[C@H]1Nc1cc(-c2cccnc2Nc2c(Cl)c(OC)cc(OC)c2Cl)ncn1
[Q] C=CC(=O)Nc1cccc(C)c1Nc1cc(-c2cccnc2Nc2c(Cl)c(OC)cc(OC)c2Cl)ncn1 [Compound 5, reference compound]
Qu. Would you kindly point out which of P and Q has the smaller half-life figure? Answer by stating the label of the chosen item.
Ans. Q
(Q: 3.69 h, P: 19.1 h)

---

# METHOD DESCRIPTION: Pharmacokinetics in mice (IP, IV, PO)
# Format: in vivo
# APPLIED CONDITIONS: mouse, in vivo; mice, IV 5 mg/kg
OBSERVATION TYPE: clearance (mL/min/kg)
Hi! Could you send only the number? It should be in mL/min/kg, unit omitted.

Qu. Requested field: clearance. Item: C=CC(=O)Nc1cccc(C)c1Nc1cc(-c2cccnc2Nc2c(Cl)c(OC)cc(OC)c2Cl)ncn1 [Compound 5, reference compound]
Ans. 13.9

---

# MEASUREMENT TARGET: FGFR1 (Homo sapiens, UniProt P11362)
# Sequence (P11362 22-822): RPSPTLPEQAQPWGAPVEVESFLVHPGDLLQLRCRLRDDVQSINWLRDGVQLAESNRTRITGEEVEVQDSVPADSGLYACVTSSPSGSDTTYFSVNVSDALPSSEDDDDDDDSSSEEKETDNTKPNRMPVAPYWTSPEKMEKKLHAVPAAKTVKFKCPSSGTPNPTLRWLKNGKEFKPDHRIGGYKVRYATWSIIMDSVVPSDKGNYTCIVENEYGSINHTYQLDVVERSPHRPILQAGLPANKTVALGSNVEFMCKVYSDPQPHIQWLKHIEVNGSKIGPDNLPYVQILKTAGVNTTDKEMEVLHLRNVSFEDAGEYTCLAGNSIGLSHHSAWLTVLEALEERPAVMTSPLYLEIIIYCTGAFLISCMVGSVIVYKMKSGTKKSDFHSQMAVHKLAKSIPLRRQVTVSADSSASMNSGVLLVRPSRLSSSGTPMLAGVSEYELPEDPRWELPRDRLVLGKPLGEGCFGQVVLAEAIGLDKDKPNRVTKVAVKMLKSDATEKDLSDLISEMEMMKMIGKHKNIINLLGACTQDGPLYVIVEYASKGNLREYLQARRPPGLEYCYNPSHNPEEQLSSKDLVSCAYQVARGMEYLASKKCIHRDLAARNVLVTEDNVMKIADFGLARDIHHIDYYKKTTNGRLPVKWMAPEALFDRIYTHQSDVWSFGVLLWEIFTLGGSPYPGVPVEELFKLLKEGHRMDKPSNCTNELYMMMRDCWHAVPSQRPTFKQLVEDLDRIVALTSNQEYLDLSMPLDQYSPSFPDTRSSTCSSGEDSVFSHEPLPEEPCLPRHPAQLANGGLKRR
# METHOD DESCRIPTION: FGFR1 kinase inhibition (IC50)
# Type: biochemical
# APPLIED CONDITIONS: read-out: FGFR1 Inhibition (IC50 class)
OBSERVATION TYPE: IC50

C=CC(=O)Nc1cc(OCC2CN(C)C2)ccc1Nc1cc(-c2cccnc2Nc2c(Cl)c(OC)cc(OC)c2Cl)ncn1 ... 0.1 to 1 µM

Qu. Given the entry C=CC(=O)Nc1cc(OC2CCN(C)C2)ccc1Nc1cc(-c2cccnc2Nc2c(Cl)c(OC)cc(OC)c2Cl)ncn1 (stereo not shown) , report its measured IC50.
Ans. 0.1 to 1 µM

Qu. Using the record for `C=CC(=O)Nc1cc(OCCN(C)C)ccc1Nc1cc(-c2cccnc2Nc2c(Cl)c(OC)cc(OC)c2Cl)ncn1` , report its IC50.
Ans. ≥ 1 µM

Qu. Form field: reported IC50 of `C=CC(=O)N[C@H]1COC[C@H]1Nc1cc(-c2cccnc2Nc2c(Cl)c(OC)cc(OC)c2Cl)ncn1`
Ans. ≥ 1 µM

Qu. Recorded IC50 for `C=CC(=O)Nc1cc(OC2CCN(C)CC2)ccc1Nc1cc(-c2cccnc2Nc2c(Cl)c(OC)cc(OC)c2Cl)ncn1` , please?
Ans. ≥ 1 µM

Qu. Fill blank: measured IC50 of the compound `C=CC(=O)Nc1cc(OC2COC2)ccc1Nc1cc(-c2cccnc2Nc2c(Cl)c(OC)cc(OC)c2Cl)ncn1` is ____.
Ans. ≥ 1 µM

Qu. Find the recorded IC50 belonging to C=CC(=O)NC1CC1Nc1cc(-c2cccnc2Nc2c(Cl)c(OC)cc(OC)c2Cl)ncn1 (stereo not shown) and report it.
Ans. 0.01 to 0.1 µM

---

# MEASUREMENT TARGET: FGFR3 (Homo sapiens, UniProt P22607)
# Sequence (P22607 23-806): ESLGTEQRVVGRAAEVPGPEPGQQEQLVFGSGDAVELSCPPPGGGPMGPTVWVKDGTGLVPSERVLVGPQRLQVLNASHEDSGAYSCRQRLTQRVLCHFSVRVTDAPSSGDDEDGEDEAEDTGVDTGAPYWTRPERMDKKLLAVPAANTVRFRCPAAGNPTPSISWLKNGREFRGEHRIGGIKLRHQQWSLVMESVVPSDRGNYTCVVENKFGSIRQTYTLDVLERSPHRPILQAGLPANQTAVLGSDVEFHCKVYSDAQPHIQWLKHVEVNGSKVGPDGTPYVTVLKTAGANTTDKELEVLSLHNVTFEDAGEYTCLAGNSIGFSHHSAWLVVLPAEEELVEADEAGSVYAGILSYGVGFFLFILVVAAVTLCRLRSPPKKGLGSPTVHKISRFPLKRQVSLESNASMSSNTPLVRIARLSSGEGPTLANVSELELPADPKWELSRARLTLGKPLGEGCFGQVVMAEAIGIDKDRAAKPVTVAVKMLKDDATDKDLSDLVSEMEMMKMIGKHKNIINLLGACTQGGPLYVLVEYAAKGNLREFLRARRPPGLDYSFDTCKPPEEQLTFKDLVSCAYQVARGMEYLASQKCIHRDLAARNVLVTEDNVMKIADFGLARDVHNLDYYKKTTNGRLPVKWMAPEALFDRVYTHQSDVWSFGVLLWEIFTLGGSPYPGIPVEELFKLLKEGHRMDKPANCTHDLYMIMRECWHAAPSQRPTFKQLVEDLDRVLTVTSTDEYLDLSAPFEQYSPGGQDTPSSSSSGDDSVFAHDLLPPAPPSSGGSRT
# METHOD DESCRIPTION: FGFR3 kinase inhibition (IC50)
# Assay type: biochemical
# APPLIED CONDITIONS: read-out: FGFR3 Inhibition (IC50 class)
OBSERVATION TYPE: IC50

Some compounds with recorded IC50:
C=CC(=O)Nc1cc(OCCN(C)C)ccc1Nc1cc(-c2cccnc2Nc2c(Cl)c(OC)cc(OC)c2Cl)ncn1 ... ≥ 1000 nM
C=CC(=O)Nc1cc(OC2CCN(C)C2)ccc1Nc1cc(-c2cccnc2Nc2c(Cl)c(OC)cc(OC)c2Cl)ncn1 (stereo not drawn) ... ≥ 1000 nM

Qu. Consider the compound `C=CC(=O)Nc1cc(OC2COC2)ccc1Nc1cc(-c2cccnc2Nc2c(Cl)c(OC)cc(OC)c2Cl)ncn1` and give its measured IC50.
Ans. ≥ 1000 nM
